Measured relative binding affinity (RBA) of individual entries
target desc: Mineralocorticoid receptor (Rattus norvegicus) (UniProt P22199)
Sequence (whole entry): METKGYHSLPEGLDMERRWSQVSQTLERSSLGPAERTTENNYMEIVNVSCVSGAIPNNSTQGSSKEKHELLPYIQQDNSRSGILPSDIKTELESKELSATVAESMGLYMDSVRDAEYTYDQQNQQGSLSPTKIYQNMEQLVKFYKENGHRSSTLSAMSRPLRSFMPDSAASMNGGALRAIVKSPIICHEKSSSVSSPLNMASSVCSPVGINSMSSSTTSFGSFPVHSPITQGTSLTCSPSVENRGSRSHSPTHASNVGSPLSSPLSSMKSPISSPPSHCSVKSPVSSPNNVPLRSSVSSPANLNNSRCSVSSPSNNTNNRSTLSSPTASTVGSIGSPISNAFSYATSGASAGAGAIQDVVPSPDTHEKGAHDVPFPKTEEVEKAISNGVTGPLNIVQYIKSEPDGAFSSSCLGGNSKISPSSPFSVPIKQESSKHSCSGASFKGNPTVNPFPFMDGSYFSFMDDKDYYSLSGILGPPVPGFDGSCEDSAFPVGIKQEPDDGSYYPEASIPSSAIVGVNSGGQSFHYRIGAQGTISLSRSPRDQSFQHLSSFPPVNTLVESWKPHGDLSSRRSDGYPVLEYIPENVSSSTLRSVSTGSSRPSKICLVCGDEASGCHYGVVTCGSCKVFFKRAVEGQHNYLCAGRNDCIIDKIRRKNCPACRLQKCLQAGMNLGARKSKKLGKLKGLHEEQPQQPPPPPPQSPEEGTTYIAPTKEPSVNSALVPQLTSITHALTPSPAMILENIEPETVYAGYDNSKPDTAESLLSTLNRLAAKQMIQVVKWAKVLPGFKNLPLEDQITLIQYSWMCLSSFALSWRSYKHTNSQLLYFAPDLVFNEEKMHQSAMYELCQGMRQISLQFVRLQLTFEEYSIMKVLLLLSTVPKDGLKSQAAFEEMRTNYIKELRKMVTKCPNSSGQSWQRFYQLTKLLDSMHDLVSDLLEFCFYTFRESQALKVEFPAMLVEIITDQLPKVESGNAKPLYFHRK
assay comment: Displacement of [3H]aldosterone from rat Mineralocorticoid receptor

compound	measured endpoint	result
C[C@]12CC[C@H]3[C@@H](CCC4CC(=O)CC[C@@]43C)[C@@H]1C[C@@H](F)[C@@H]2O (stereo partly drawn)	relative binding affinity (RBA)	0.05
C[C@@H]1CC2=CC(=O)CC[C@@H]2C2CC[C@@]3(C)C(C[C@H](F)[C@@H]3O)C21 (stereo partly drawn)	relative binding affinity (RBA)	0.05

Task: Tell me its relative binding affinity (RBA) on Mineralocorticoid receptor (Rattus norvegicus) (UniProt P22199): `C[C@]1(O)CC[C@H]2[C@@H]3CCC4=CC(=O)CCC4=C3C=C[C@@]21C`
Result: 25.4

Task: Tell me its relative binding affinity (RBA) on Mineralocorticoid receptor (Rattus norvegicus) (UniProt P22199): `C[C@]12CC[C@H]3[C@@H](CCC4=CC(=O)CC[C@@H]43)[C@@H]1CC[C@@H]2O`
Result: 2

Task: Tell me its relative binding affinity (RBA) on Mineralocorticoid receptor (Rattus norvegicus) (UniProt P22199): C[C@]12C=CC3=C4CCC(=O)C=C4CCC3C1CC[C@@]2(O)CF (stereo partly drawn)
Result: 4.5

Task: Tell me its relative binding affinity (RBA) on Mineralocorticoid receptor (Rattus norvegicus) (UniProt P22199): C[C@]12CC[C@H]3[C@@H](CCC4CC(=O)CC[C@@]43C)[C@@H]1C[C@H](F)[C@@H]2O (stereo partly drawn)
Result: 0.06

Task: Tell me its relative binding affinity (RBA) on Mineralocorticoid receptor (Rattus norvegicus) (UniProt P22199): C[C@@H]1CC2=CC(=O)CC[C@@H]2C2CC[C@@]3(C)C(CC[C@@H]3O)C21 (stereo partly drawn)
Result: 0.74

Task: Tell me its relative binding affinity (RBA) on Mineralocorticoid receptor (Rattus norvegicus) (UniProt P22199): C[C@@H]1CC2=CC(=O)CC[C@@H]2C2CC[C@@]3(C)C(C[C@H](F)[C@]3(C)O)C21 (stereo partly drawn)
Result: 0.08

Task: Tell me its relative binding affinity (RBA) on Mineralocorticoid receptor (Rattus norvegicus) (UniProt P22199): C[C@@H]1CC2=CC(=O)CC[C@@H]2C2CC[C@@]3(C)C(C[C@@H](F)[C@@H]3O)C21 (stereo partly drawn)
Result: 0.21

Task: Tell me its relative binding affinity (RBA) on Mineralocorticoid receptor (Rattus norvegicus) (UniProt P22199): `C[C@]12CC[C@H]3[C@@H](CCC4=CC(=O)CC[C@@]43C)[C@@H]1CC[C@@H]2O`
Result: 4.19

Task: Tell me its relative binding affinity (RBA) on Mineralocorticoid receptor (Rattus norvegicus) (UniProt P22199): C[C@@H]1CC2=CC(=O)CC[C@@H]2C2CC[C@@]3(C)C(C[C@@H](F)[C@]3(C)O)C21 (stereo partly drawn)
Result: 0.37

Task: Tell me its relative binding affinity (RBA) on Mineralocorticoid receptor (Rattus norvegicus) (UniProt P22199): C[C@@H]1CC2=CC(=O)CC[C@@H]2C2CC[C@@]3(C)C(CC[C@]3(C)O)C21 (stereo partly drawn)
Result: 5.7

Task: Tell me its relative binding affinity (RBA) on Mineralocorticoid receptor (Rattus norvegicus) (UniProt P22199): C[C@@H]1CC2=CC(=O)CC[C@@H]2C2CC[C@@]3(C)C(CC[C@@]3(O)CF)C21 (stereo partly drawn)
Result: 0.86

Sourced from ChEMBL document CHEMBL1126069
